SYSTEM_UNDER_TEST: MAGL (Mus musculus (Mouse))
Sequence (O35678 whole entry): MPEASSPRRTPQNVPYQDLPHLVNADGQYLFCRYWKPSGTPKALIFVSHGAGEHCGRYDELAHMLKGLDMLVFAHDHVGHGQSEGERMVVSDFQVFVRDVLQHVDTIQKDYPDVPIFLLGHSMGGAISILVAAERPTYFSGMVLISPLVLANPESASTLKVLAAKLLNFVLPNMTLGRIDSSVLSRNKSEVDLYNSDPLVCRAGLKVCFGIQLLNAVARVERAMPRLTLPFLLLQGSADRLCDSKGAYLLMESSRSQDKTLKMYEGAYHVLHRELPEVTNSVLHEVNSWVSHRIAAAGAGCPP
MEASUREMENT_DESCRIPTION: In vitro competitive activity-based protein profiling, MAGL (mouse)
Type: biochemical
TEST_PARAMETERS: 1 μM, read-out: MAGL % inh. 1 μM (mouse)
Procedure: In Vitro Competitive Activity-Based Protein Profiling. Proteomes (mouse brain membrane fraction or cell lysates for mouse assays; human prefrontal cortex or cell membrane fractions for human assays) (50 μL, 1.0 mg/mL total protein concentration) were preincubated with varying concentrations of inhibitors at 37° C. […] Following gel imaging, serine hydrolase activity was determined by measuring fluorescent intensity of gel bands corresponding to MAGL and FAAH using ImageJ 1.43u software.
ENDPOINT_LABEL: inhibition at 1 µM

Answer for every listed entry: what is its inhibition at 1 µM? The entries follow.
1. CC(=O)N(C)c1cnn(C(=O)N2CC3(CCN(Cc4ccc(C)cc4)CC3)C2)c1 [Example 87]
2. CC(=O)N(C)c1cnn(C(=O)N2CC3CN(Cc4ccc(OC(C)C)cc4Cl)CC3C2)c1 (stereo not shown) [Example 253]
3. CC(=O)N(C)c1cnn(C(=O)N2CC3CN(Cc4cccc(OCc5ccccc5)c4)CC3C2)c1 (stereo not shown) [Example 239]
4. CC(=O)N(C)c1cnn(C(=O)N2CC3CN(Cc4ccc(-c5cnccn5)cc4Cl)CC3C2)c1 (stereo not shown) [Example 266]
5. CC(=O)N(C)c1cnn(C(=O)N2CC3(CCN(Cc4ccc(N5CCOCC5)cc4C)CC3)C2)c1 [Example 23]
6. CS(=O)(=O)Nc1cnn(C(=O)N2CC3CN(Cc4cc(Cl)ccc4C(F)(F)F)CC3C2)c1 (stereo not shown) [Example 275]

Outgoing:
1. 50 to 75%
2. ≥ 75%
3. ≥ 75%
4. ≥ 75%
5. 25 to 50%
6. ≥ 75%

Answer for every listed entry: what is its inhibition at 1 µM? The entries follow.
1. CC(=O)N(C)c1cnn(C(=O)N2CCC3(CC2)CN(Cc2ccc(N4CCOCC4)cc2)C3)c1 [Example 27]
2. CC(=O)N(C)c1cnn(C(=O)N2CCC3(CCN(Cc4ccc(C(F)(F)F)cc4)C3)C2)c1 (stereo not shown) [Example 2]
3. CC(=O)N(C)c1cnn(C(=O)N2CC3CN(Cc4ccc(N5CCCC5)cc4)CC3C2)c1 (stereo not shown) [Example 13]
4. CC(=O)N(C)c1cnn(C(=O)N2CCC3(CCN(Cc4cccc(N5CCCC5)c4)C3)C2)c1 (stereo not shown) [Example 82]
5. CC(=O)Nc1cnn(C(=O)N2CC3CN(Cc4cc(Cl)cc(C(F)(F)F)c4)CC3C2)c1 (stereo not shown) [Example 315]
6. CC(=O)N(C)c1cnn(C(=O)N2CCC3(CCN(Cc4cccc(Cl)c4)C3)C2)c1 (stereo not shown) [Example 78]

Outgoing:
1: ≥ 75%; 2: ≥ 75%; 3: ≥ 75%; 4: 25 to 50%; 5: ≥ 75%; 6: 50 to 75%

Answer for every listed entry: what is its inhibition at 1 µM? The entries follow.
1. CC(=O)N(C)c1cnn(C(=O)N2CC3CN(Cc4ccc(OCC(=O)N5CCCC5)cc4C(F)(F)F)CC3C2)c1 (stereo not shown) [Example 256]
2. CC(=O)N(C)c1cnn(C(=O)N2CCC3(CCN(Cc4ccccc4Cl)C3)C2)c1 (stereo not shown) [Example 50]
3. CC(=O)N(C)c1cnn(C(=O)N2CCC3(CC2)CN(Cc2ccccc2N2CCOCC2)C3)c1 [Example 46]
4. COc1cccc(CN2CCC3(CCN(C(=O)n4cc(N(C)C(C)=O)cn4)C3)C2)c1 (stereo not shown) [Example 81]

Outgoing:
1: 0 to 25%; 2: 50 to 75%; 3: 50 to 75%; 4: 0 to 25%

---

SYSTEM_UNDER_TEST: FAAH (Mus musculus (Mouse), UniProt O08914)
Sequence (O08914 whole entry): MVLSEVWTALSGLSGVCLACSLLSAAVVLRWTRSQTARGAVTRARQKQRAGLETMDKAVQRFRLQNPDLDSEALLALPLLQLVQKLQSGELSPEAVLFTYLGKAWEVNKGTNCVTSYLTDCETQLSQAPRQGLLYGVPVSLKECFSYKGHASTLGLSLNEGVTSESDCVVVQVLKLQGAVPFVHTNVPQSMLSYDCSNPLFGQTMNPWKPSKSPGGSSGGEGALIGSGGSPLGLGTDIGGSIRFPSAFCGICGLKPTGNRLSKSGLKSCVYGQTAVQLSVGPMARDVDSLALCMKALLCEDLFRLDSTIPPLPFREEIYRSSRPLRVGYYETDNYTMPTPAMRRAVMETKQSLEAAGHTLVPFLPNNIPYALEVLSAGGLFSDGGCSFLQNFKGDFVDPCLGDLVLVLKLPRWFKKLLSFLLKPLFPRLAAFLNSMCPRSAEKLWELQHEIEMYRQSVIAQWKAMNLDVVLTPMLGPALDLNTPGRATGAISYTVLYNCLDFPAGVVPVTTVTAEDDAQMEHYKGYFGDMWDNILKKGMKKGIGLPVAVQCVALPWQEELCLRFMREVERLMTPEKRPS
MEASUREMENT_DESCRIPTION: In vitro competitive activity-based protein profiling, FAAH (mouse)
Format: biochemical
pIC50: −log10 of the molar value.
ENDPOINT_LABEL: pIC50

These recorded examples may help you get a feel for the data.
• CC(=O)N(C)c1cnn(C(=O)N2CC3CN(Cc4ccc(N5CCOCC5)cc4Cl)CC3C2)c1 (stereo not drawn) [Example 16] = ≥ 7.00
• CC(=O)N(C)c1cnn(C(=O)N2C[C@H]3C[C@H](N(Cc4ccccc4Cl)C(C)=O)C[C@H]3C2)c1 [Example 172] = 5.00 to 6.00
• CC(=O)N(C)c1cnn(C(=O)N2CCN(Cc3ccc(C(F)(F)F)cc3N3C4CCC3COC4)CC2)c1 [Example 195] = 5.00 to 6.00
• CC(=O)N(C)c1cnn(C(=O)N2CCC3(CCN(Cc4ccc(C(F)(F)F)c(N5CCOCC5)c4)C3)C2)c1 (stereo not drawn) [Example 61] = ≥ 7.00
• CC(=O)N(C)c1cnn(C(=O)N2CCC3(CC2)CN(Cc2ccccc2C(F)(F)F)C3)c1 [Example 44] = ≥ 7.00
• CC(=O)N(C)c1cnn(C(=O)N2CC3CN(Cc4cc(Cl)cc(N5CCCC5)c4)CC3C2)c1 (stereo not drawn) [Example 110] = ≥ 7.00
• CC(=O)N(C)c1cnn(C(=O)N2CCC3(CCN(Cc4cccc(C(F)(F)F)c4)C3)C2)c1 (stereo not drawn) [Example 64] = ≥ 7.00
• CC(=O)N(C)c1cnn(C(=O)N2CC3CN(Cc4cccc(N5CCCC5)c4)CC3C2)c1 (stereo not drawn) [Example 119] = ≥ 7.00
• CC(=O)N(C)c1cnn(C(=O)N2CCC3(CCN(Cc4ccc(N5CCCC5)c(Cl)c4)C3)C2)c1 (stereo not drawn) [Example 67] = ≥ 7.00
• CC(=O)Nc1cnn(C(=O)N2CCN(Cc3cc(N4CCCC4)cc(C(F)(F)F)c3)CC2)c1 [Example 227] = 6.00 to 7.00

Answer for every listed entry: what is its pIC50? The entries follow.
1. CC(=O)N(C)c1cnn(C(=O)N2CCC3(CC2)CN(Cc2ccc(C(F)(F)F)cc2)C3)c1 [Example 26]
2. CC(=O)N(C)c1cnn(C(=O)N2CC3CN(Cc4cccc(Cl)c4C)CC3C2)c1 (stereo not drawn) [Example 103]

Outgoing:
["6.00 to 7.00", "≥ 7.00"]

---

Dear all, this message contains pIC50 results, target or system UniProt:O08914.
pIC50: −log10 of the molar value.

These recorded examples may help you get a feel for the data.
* CC(=O)N(C)c1cnn(C(=O)N2CCN(Cc3cccc(Cl)c3)CC2)c1 [Example 193] | 6.00 to 7.00
* CC(=O)N(C)c1cnn(C(=O)N2CCC3(CC2)CN(Cc2cccc(Cl)c2)C3)c1 [Example 34] | ≥ 7.00
* CC(=O)N(C)c1cnn(C(=O)N2CC3CN(Cc4cccc(OCc5ccccc5)c4)CC3C2)c1 (centres unmarked) [Example 239] | ≥ 7.00

Answer for every listed entry: what is its pIC50? The entries follow.
1. CC(=O)N(C)c1cnn(C(=O)N2CCN(Cc3ccc(N4CCOCC4)cc3C)CC2)c1 [Example 204]
2. CC(=O)N(C)c1cnn(C(=O)N2C[C@H]3C[C@@H](N(C)Cc4cccc(Cl)c4)C[C@H]3C2)c1 [Example 141]
3. CC(=O)N(C)c1cnn(C(=O)N2CCN(Cc3ccc(-c4ccccc4)cc3C)CC2)c1 [Example 201]

Outgoing:
1: 6.00 to 7.00; 2: ≥ 7.00; 3: ≥ 7.00

Answer for every listed entry: what is its pIC50? The entries follow.
1. CC(=O)N(C)c1cnn(C(=O)N2CCC3(CCN(Cc4ccc(C)cc4Cl)C3)C2)c1 (centres unmarked) [Example 55]
2. CC(=O)N(C)c1cnn(C(=O)N2CC3CN(Cc4c(Cl)cccc4Cl)CC3C2)c1 (centres unmarked) [Example 111]

Outgoing:
["≥ 7.00", "≥ 7.00"]

---

SYSTEM_UNDER_TEST: FAAH (Mus musculus (Mouse))
MEASUREMENT_DESCRIPTION: In vitro competitive activity-based protein profiling, FAAH (mouse)
Assay type: biochemical
TEST_PARAMETERS: 1 μM, read-out: FAAH % inh. 1 μM (mouse)
ENDPOINT_LABEL: inhibition at 1 µM

These recorded examples may help you get a feel for the data.
- CS(=O)(=O)Nc1cnn(C(=O)N2CCC3(CCN(Cc4cc(Cl)ccc4C(F)(F)F)C3)C2)c1 (stereo not drawn): ≥ 75%
- CC(=O)N(C)c1cnn(C(=O)N2CC3CN(Cc4ccc(N5CCOCC5)c(C(F)(F)F)c4)CC3C2)c1 (stereo not drawn): ≥ 75%
- CC(=O)N(C)c1cnn(C(=O)N2CCN(Cc3cccc(F)c3)CC2)c1: ≥ 75%
- CC(=O)N(C)c1cnn(C(=O)N2CCN(Cc3ccccc3N3CCOCC3)CC2)c1: 0 to 25%
- CC(=O)N(C)c1cnn(C(=O)N2C[C@H]3C[C@@H](N(C)Cc4ccc(N5CCCC5)cc4C(F)(F)F)C[C@H]3C2)c1: ≥ 75%
- CC(=O)N(C)c1cnn(C(=O)N2CCC3(CC2)CN(Cc2cccc(Cl)c2)C3)c1: ≥ 75%

Answer for every listed entry: what is its inhibition at 1 µM? The entries follow.
1. CC(=O)N(C)c1cnn(C(=O)N2CC3(CCN(Cc4cccc(C(F)(F)F)c4)CC3)C2)c1
2. CC(=O)N(C)c1cnn(C(=O)N2CC3CN(Cc4ccc(OC5CCN(C6CC6)CC5)cc4C(F)(F)F)CC3C2)c1 (stereo not drawn)
3. CC(=O)N(C)c1cnn(C(=O)N2CC3CN(Cc4ccc(N5C[C@@H]6C[C@H]5CN6C)cc4C(F)(F)F)CC3C2)c1 (stereo partly drawn)
4. CC(=O)N(C)c1cnn(C(=O)N2CCC3(CCN(Cc4cccc(C)c4)C3)C2)c1 (stereo not drawn)
5. CC(=O)N(C)c1cnn(C(=O)N2CCC3(CCN(Cc4cc(Cl)cc(Cl)c4)C3)C2)c1 (stereo not drawn)
6. CC(=O)N(C)c1cnn(C(=O)N2CCC3(CCN(Cc4cccc(N5CCCC5)c4)C3)C2)c1 (stereo not drawn)

Outgoing:
≥ 75%
≥ 75%
50 to 75%
50 to 75%
≥ 75%
≥ 75%

Answer for every listed entry: what is its inhibition at 1 µM? The entries follow.
1. CC(=O)N(C)c1cnn(C(=O)N2CC3CN(Cc4ccc(N5CCOCC5)c(Cl)c4)CC3C2)c1 (stereo not drawn)
2. CC(=O)N(C)c1cnn(C(=O)N2CCN(Cc3ccc(C(F)(F)F)cc3)CC2)c1
3. CS(=O)(=O)Nc1cnn(C(=O)N2CC3CN(Cc4ccccc4Cl)CC3C2)c1 (stereo not drawn)

Outgoing:
["≥ 75%", "≥ 75%", "≥ 75%"]
